# procedure-text: Lipophilicity, logD of compound at pH 7.4 by retention time-based reverse phase chromatographic analysis
# Type: physicochemical
# setup-conditions: buffer
Entries whose chromatographic logD is below 3 take yes; entries at or above 3 take no.

Asked: Does the reported chromatographic logD of the following compound sit strictly below 3? COc1cc(-c2nnc3n2CCCC32C(=O)N(CC(F)(F)F)c3ccccc32)ccc1-c1cnc(C)o1 (configuration not stated)
Given back: yes

Asked: chromatographic logD strictly < 3 for this compound? COc1cc(-c2nnc3n2CCCC3(Oc2cc(F)c(F)c(F)c2)C(C)(C)O)ccc1-c1cnc(C)o1 (configuration not stated)
Given back: no

Asked: Please let me know if COc1cc(-c2nnc3n2CCC[C@@]3(Oc2cc(F)c(F)c(F)c2)C(C)(C)O)ccc1-c1cnc(C)o1 shows chromatographic logD below 3.
Given back: no

Asked: Would you kindly verify if chromatographic logD of COc1cc(-c2nnc3n2CCCC3(c2ccc(F)c(F)c2)C(C)(C)O)ccc1-c1cnc(C)o1 (configuration not stated) is strictly less than 3?
Given back: yes

Asked: Check if chromatographic logD falls below 3 for COc1cc(-c2nnc3n2CCCC3(Cc2ccc(F)c(F)c2)C(=O)N(C)CC(F)(F)F)ccc1-c1cnc(C)o1 (configuration not stated) .
Given back: yes

Asked: Input COc1cc(-c2nnc3n2CCCC3(CO)Cc2ccc(F)c(F)c2)ccc1-c1cnc(C)o1 (configuration not stated) ; condition: chromatographic logD strictly below 3. Does it hold?
Given back: yes

Asked: Is the reported chromatographic logD for COc1cc(-c2nnc3n2CCCC3(CN)c2ccc(Cl)c(Cl)c2)ccc1-c1cnc(C)o1 (configuration not stated) strictly below 3?
Given back: no

Asked: State whether 3 exceeds chromatographic logD recorded for COc1cc(-c2nnc3n2CCCC3(OC)c2ccc(Cl)c(Cl)c2)ccc1-c1cnc(C)o1 (configuration not stated) .
Given back: no

Asked: Strictly below 3 in chromatographic logD? COc1cc(-c2nnc3n2CCCC32COc3ccccc3N(CC(F)(F)F)C2=O)ccc1-c1cnc(C)o1 (configuration not stated)
Given back: yes

Asked: Criterion: chromatographic logD strictly below 3. Is it met by COc1cc(-c2nnc3n2CCCC3(c2ccc(Cl)c(Cl)c2)C(C)(C)O)ccc1-c1cnc(C)o1 (configuration not stated) ?
Given back: no

Asked: Is 3 strictly greater than the compound's reported chromatographic logD? compound: COc1cc(-c2nnc3n2CCCC3(Oc2ccc(F)c(F)c2)C(C)(C)O)ccc1-c1cnc(C)o1 (configuration not stated)
Given back: yes

Asked: Regarding COc1cc(-c2nnc3n2CCCC3(Cc2ccc(F)c(F)c2)C(N)=O)ccc1-c1cnc(C)o1 (configuration not stated) , kindly confirm whether its chromatographic logD is beneath 3.
Given back: yes

Asked: Strictly below 3: is that where chromatographic logD of COc1cc(-c2nnc3n2CCCC32OCc3c(cccc3C(F)(F)F)N(CC(F)(F)F)C2=O)ccc1-c1cnc(C)o1 (configuration not stated) sits?
Given back: yes

Asked: Confirm or reject: chromatographic logD of COc1cc(-c2nnc3n2CCCC32OCc3ccccc3N(CC(F)(F)F)C2=O)ccc1-c1cnc(C)o1 (configuration not stated) lies strictly below 3
Given back: yes

Asked: Answer whether the compound COc1cc(-c2nnc3n2CCCC32Cc3ccccc3N(CC(F)(F)F)C2=O)ccc1-c1cnc(C)o1 (configuration not stated) has chromatographic logD strictly less than 3
Given back: yes

Asked: chromatographic logD under 3? Item: COc1cc(-c2nnc3n2CCCC3(Cc2ccc(F)c(F)c2)C(C)=O)ccc1-c1cnc(C)o1 (configuration not stated)
Given back: yes

Asked: Consider the compound COc1cc(-c2nnc3n2CCCC3(CNC(C)=O)c2ccc(Cl)c(Cl)c2)ccc1-c1cnc(C)o1 (configuration not stated) . Is its chromatographic logD strictly less than 3?
Given back: no

Asked: Please let me know if COc1cc(-c2nnc3n2CCCC3(O)c2ccc(Cl)c(Cl)c2)ccc1-c1cnc(C)o1 (configuration not stated) shows chromatographic logD below 3.
Given back: yes

Asked: Hello, is chromatographic logD of the following compound strictly smaller than 3? COc1cc(-c2nnc3n2CCC[C@]3(Oc2cc(F)c(F)c(F)c2)C(C)(C)O)ccc1-c1cnc(C)o1
Given back: no

Asked: Regarding COc1cc(-c2nnc3n2CCCC32OCc3c(Cl)cccc3N(CC(F)(F)F)C2=O)ccc1-c1cnc(C)o1 (configuration not stated) , kindly confirm whether its chromatographic logD is beneath 3.
Given back: yes
